- test.system: human PEPP1 PH domain (Ser-Ala-Ser to Arg-Pro-Gln, accession N31123), GST fusion (Homo sapiens, UniProt Q9H4M7)
- Construct: DNA probe corresponding to the N-terminal 15 to 169 residues of PEPP1
- Sequence (Q9H4M7 15-169): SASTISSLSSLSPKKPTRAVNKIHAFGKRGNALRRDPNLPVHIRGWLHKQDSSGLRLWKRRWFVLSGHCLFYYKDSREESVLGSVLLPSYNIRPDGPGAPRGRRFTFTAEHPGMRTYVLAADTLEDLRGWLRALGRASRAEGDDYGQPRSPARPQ
- experiment.summary: Surface plasmon resonance (BIACore), GST fusion binding to phosphoinositide in supported lipid monolayer
- conditions: supported phosphatidylcholine monolayers, 1:1 binding model, NB, no binding detected, read-out: Apparent Kd
- Experimental: Cloning of PH domains and preparation of expression constructs. All the human and mouse EST's were obtained from the I.M.A.G.E. Consortium and sequenced. […] Expression of GST-PH domains in E.coli. The pGEX4T-1 constructs encoding the PH domains of FAPP1, AtPH1, PEPP1, LL5α, LL5β, evectin-2 and PH30 were transformed into BL21 E.coli cells and a 0.5 L culture was grown at 37° C. in Luria Broth containing 100 μg/ml ampicillin, until the absorbance at 600 nm was 0.6. […]
measured.quantity: pKd
FYI, pKd means -log10 of a concentration in mol per litre.

Q: Give me measured pKd, please, for this molecule: "CCCCCCCCCCCCCCCC(=O)OC[C@H](COP(=O)(O)O[C@@H]1[C@H](O)[C@H](OP(=O)(O)O)[C@@H](O)[C@H](O)[C@H]1O)OC(=O)CCCCCCCCCCCCCCC"
A: 6.49
